Here the recorded pIC50 is given for each entry.
Target: Polyunsaturated fatty acid 5-lipoxygenase (Homo sapiens, UniProt P09917)
Sequence (P09917 whole entry): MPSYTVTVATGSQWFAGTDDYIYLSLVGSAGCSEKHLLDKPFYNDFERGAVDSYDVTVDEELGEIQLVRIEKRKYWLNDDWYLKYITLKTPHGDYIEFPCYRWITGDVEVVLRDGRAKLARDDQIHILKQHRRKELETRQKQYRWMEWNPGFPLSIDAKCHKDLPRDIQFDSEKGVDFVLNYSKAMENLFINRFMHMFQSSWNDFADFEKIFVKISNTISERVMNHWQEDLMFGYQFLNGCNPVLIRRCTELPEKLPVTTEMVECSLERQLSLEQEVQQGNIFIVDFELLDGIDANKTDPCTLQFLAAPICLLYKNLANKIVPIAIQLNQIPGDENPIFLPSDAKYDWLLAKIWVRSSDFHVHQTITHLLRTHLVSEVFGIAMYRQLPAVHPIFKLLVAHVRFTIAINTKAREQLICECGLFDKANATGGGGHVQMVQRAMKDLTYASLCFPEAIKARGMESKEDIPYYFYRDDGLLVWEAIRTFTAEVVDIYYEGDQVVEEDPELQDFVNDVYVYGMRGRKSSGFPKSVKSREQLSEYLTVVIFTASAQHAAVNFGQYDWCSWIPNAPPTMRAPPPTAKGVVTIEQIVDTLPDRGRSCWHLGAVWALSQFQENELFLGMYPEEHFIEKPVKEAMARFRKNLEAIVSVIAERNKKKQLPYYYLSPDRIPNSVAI
Experiment: Inhibition of 5-lipoxygenase in human neutrophil preincubated for 15 mins before substrate arachidonic acid addition measured after 10 mins by HPLC method
pIC50: −log10 of the molar value.

Check out these entries, answers already filled in.
{"CHEMICAL SMILES": "O=C(O)c1ccc(Cn2cc(-c3ccc(-c4cccs4)cc3)nn2)c([N+](=O)[O-])c1", "pIC50": "< 5.00"}
{"CHEMICAL SMILES": "O=C(O)c1ccc(Cn2cc(-c3ccc(-c4ccccc4C(=O)O)cc3)nn2)c([N+](=O)[O-])c1", "pIC50": "< 5.00"}
{"CHEMICAL SMILES": "Nc1ccc(-c2ccc(-c3cn(Cc4ccc(C(=O)O)cc4[N+](=O)[O-])nn3)cc2)cc1", "pIC50": "< 5.00"}
{"CHEMICAL SMILES": "COc1ccc(-c2ccc(-c3cn(Cc4ccc(C(=O)O)cc4[N+](=O)[O-])nn3)cc2)cc1CN1CCOCC1", "pIC50": "< 5.00"}
{"CHEMICAL SMILES": "O=C(O)c1ccc(Cn2cc(-c3ccc(-c4cccc(C(=O)N5CCOCC5)c4)cc3)nn2)c([N+](=O)[O-])c1", "pIC50": "< 5.00"}
{"CHEMICAL SMILES": "O=C(O)c1ccc(Cn2cc(-c3ccc(-c4ccccc4COc4cc(C(F)(F)F)ccc4Cl)cc3)nn2)c([N+](=O)[O-])c1", "pIC50": 5.28}
{"CHEMICAL SMILES": "Nc1cc(C(=O)O)ccc1Cn1cc(-c2ccc(-c3ccccc3COc3cc(C(F)(F)F)ccc3Cl)cc2)nn1", "pIC50": 5.68}
{"CHEMICAL SMILES": "O=C(O)c1ccc(-c2ccc(-c3cn(Cc4ccc(C(=O)O)cc4[N+](=O)[O-])nn3)cc2)cc1", "pIC50": "< 5.30"}
{"CHEMICAL SMILES": "O=C(O)c1ccc(S(=O)(=O)n2cc(-c3ccc(-c4ccccc4COc4cc(C(F)(F)F)ccc4Cl)cc3)nn2)cc1", "pIC50": 5.92}
{"CHEMICAL SMILES": "CN(C)c1ccc2cc(S(=O)(=O)Nc3ccc(-c4ccc(-c5cn(Cc6ccc(C(=O)O)cc6[N+](=O)[O-])nn5)cc4)cc3)ccc2c1", "pIC50": "< 5.00"}

### Prompt Give the reported value of pIC50 for this record: O=C(O)c1ccc(Cn2cc(-c3ccc(-c4ccc(O)cc4)cc3)nn2)c([N+](=O)[O-])c1
### Response < 5.00

### Prompt Give the reported value of pIC50 for this record: O=C(O)c1ccc(Cn2cc(-c3ccc(-c4ccccc4COc4cc(C(F)(F)F)ccc4Cl)cc3)nn2)cc1
### Response 5.70

### Prompt Give the reported value of pIC50 for this record: COc1cc(-c2ccc(-c3cn(Cc4ccc(C(=O)O)cc4[N+](=O)[O-])nn3)cc2)cc(OC)c1OC
### Response < 5.00

### Prompt Give the reported value of pIC50 for this record: O=C(O)c1cccc(-c2ccc(-c3cn(Cc4ccc(C(=O)O)cc4[N+](=O)[O-])nn3)cc2)c1
### Response < 5.00

### Prompt Give the reported value of pIC50 for this record: O=C(O)c1ccc(Cn2cc(-c3ccc(-c4cccc(O)c4)cc3)nn2)c([N+](=O)[O-])c1
### Response < 5.00
